Method summary: NCI Yeast Anticancer Drug Screen. Data for the sgs1 mgt1 strain (AID 161);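 note: 0% = growth of cultures given vehicle only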
Measurement conditions: S. cerevisiae sgs1 mgt1 strain, at 50.0 µM (retest, dose inferred, filed as 5.0), active compounds read high
The panel holds about 79,000 compounds, 15% with a hit somewhere; the sample as a whole holds those more often.

Molecule: O=C(O)C1OC1(c1cccc(Cl)c1)c1ccccc1Cl (stereo unspecified)
growth inhibition [%]: 93
//
Molecule: O=C1Nc2ccc(Cl)c(I)c2C1=O
growth inhibition [%]: 17
//
Molecule: CC(O)C(O)C(O)C(/C=N\Nc1ccccc1)=N/Nc1ccccc1 (stereo unspecified)
growth inhibition [%]: 56
//
Molecule: CCCCN1C(=O)N(c2ccc(OCC)cc2)C2N(CCCC)C1C(C)(C)C2(C)C (stereo unspecified)
growth inhibition [%]: 82
//
Molecule: CCCCCCc1cc(C(=O)OC/C(C)=N/NC(N)=O)c2ccccc2n1
growth inhibition [%]: 47
//
Molecule: C/C(=N\NC(=S)N1CCCCC1)c1cccc(C)n1
growth inhibition [%]: 99
//
Molecule: CC(/C=C/c1ccc2c(c1)OCO2)[N+](=O)[O-] (stereo unspecified)
growth inhibition [%]: 98
//
Molecule: CC(=O)N/N=C/C(C)(C)C(C)(C)/C=N/NC(C)=O
growth inhibition [%]: 78
//
Molecule: COc1cc(CC2CC(c3ccc4c(c3)OCO4)OC2=O)cc(OC)c1OC (stereo unspecified)
growth inhibition [%]: 6
//
Molecule: COc1cc(C2c3cc4c(cc3OC(Nc3ccccc3)C2C)OCO4)cc(OC)c1O (stereo unspecified)
growth inhibition [%]: 6
//
Molecule: NC(=NCc1ccccc1)N/N=C\c1ccnc2ccccc12
growth inhibition [%]: 75

---

growth inhibition for assorted compounds
Method summary: NCI Yeast Anticancer Drug Screen. Data for the mgt1 strain (AID 153)
Measurement conditions: S. cerevisiae mgt1 mutant growth inhibition; at 3.7 µM; active compounds read high
Experimental: Growth inhibition of yeast strains with defined genetic alterations is measured as a screen for potential anti-cancer activity. Selected strains with alterations in DNA damage repair or cell cycle control were exposed to compounds and growth inhibition was measured relative to vehicle treated controls. The strain used in this assay is mgt1
The panel holds about 79,000 compounds, 15% with a hit somewhere; the sample as a whole holds those more often.
Assay metric: growth inhibition (%)

Compound: COc1ccccc1C(=O)OCC1CCCN2CCCCC12 (configuration not stated)
Experimental result: 15
--
Compound: O=C1C2C(C(=O)N1c1ccc(OCc3ccccc3)cc1)C1c3ccccc3C2C2CCCCN21 (configuration not stated)
Experimental result: 4
--
Compound: NCCNc1ccc(NCCN)c2c1C(=O)c1c(O)ccc(O)c1C2=O
Experimental result: -21
--
Compound: OC1(c2ccccc2)CSC2=Nc3ccccc3C3CCN1N23 (configuration not stated)
Experimental result: -43
--
Compound: CCCCN1C(=O)N(c2ccc(OCC)cc2)C2N(CCCC)C1C(C)(C)C2(C)C (configuration not stated)
Experimental result: -7
--
Compound: CCCCCCCC1(N=[N+]=[N-])C(=O)c2ccccc2N(C)C1=O (configuration not stated)
Experimental result: -18
--
Compound: CCCCCCCCCCNC(=O)OCC
Experimental result: -11
--
Compound: CC(C)/C(Cl)=N\OC(=O)Nc1cccc(Cl)c1
Experimental result: -3
--
Compound: O=C(c1ccc(Cl)cc1Cl)C(Cl)Cl
Experimental result: -34
--
Compound: CCCCCCCCCC/C=C\C(=O)O
Experimental result: -10
--
Compound: BrCc1cccc2ccc3cccc(CBr)c3c12
Experimental result: 0
--
Compound: CC(C)OC(=O)Oc1ccccc1OC(=O)OC(C)C
Experimental result: 3

---

Method summary: NCI Yeast Anticancer Drug Screen. Data for the mec2-1 strain (AID 157)
Measurement conditions: S. cerevisiae mec2-1 strain, at 50.0 µM, active compounds read high
About 79,000 compounds went through this panel and 15% of them were active in at least one assay; those are over-represented in the sample as a whole.

Compound: COc1ccc(/C=C/C(=O)C(C)(C)Br)cc1
growth inhibition, %: 96.6
--
Compound: COC(=O)C1=C(C)NC(C)=C(C(=O)OCCCN2CCC(c3ccccc3)(c3ccccc3)CC2)C1c1cccc([N+](=O)[O-])c1 (stereo unspecified)
growth inhibition, %: 95.9
--
Compound: Cc1ccc(S(=O)(=O)Oc2cc(Cl)c(Cl)cc2Cl)cc1
growth inhibition, %: -21.8
--
Compound: CC(=O)ON1C(=O)c2cccc3cccc(c23)C1=O
growth inhibition, %: 87.8
--
Compound: C[S+](C)C1(c2ccccc2)C(=O)c2ccccc2C1=O
growth inhibition, %: -11.7
--
Compound: S=C(S)NN1CCOCC1
growth inhibition, %: 97.8

---

Method summary: NCI Yeast Anticancer Drug Screen. Data for the rad50 strain (AID 155);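 note: 0% = growth of vehicle-only cultures of the same strain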
Measurement conditions: S. cerevisiae rad50 strain growth inhibition; at 50.0 µM; active compounds read high
Compounds without any hit were thinned out: in the full panel of roughly 79,000, 15% have a hit. Activity calls are given as the source filed them. Rule as the data show it: active = growth inhibition above about 70%; inactive = the rest.

Compound: O=C1C=CC(=O)c2c(O)c(Nc3ccc(OC(F)(F)F)cc3)c(Cl)c(O)c21
growth inhibition: 42% (inactive)
//
Compound: CSC(=S)Nc1cccc(C)n1
growth inhibition: 41.8% (inactive)
//
Compound: O=[N+]([O-])C(=C(Sc1ccccc1)Sc1ccccc1)C(Cl)=C(Cl)Cl
growth inhibition: 19.6% (inactive)
//
Compound: CC(=O)Nc1ccc(/C=C(\C#N)c2ccc(C)cc2)cc1
growth inhibition: 28.4% (inactive)
//
Compound: O=C(NCCCCCCCN1CCCCCCC1)C(C1CCCCC1)C1CCCCC1
growth inhibition: 99.3% (active)
//
Compound: CCCCCCCCCCCCCCCCCCOCC(O)COP(=O)(O)OCC1OC(n2cc(F)c(=O)[nH]c2=O)CC1O (stereo unspecified)
growth inhibition: 87.6% (active)

---

Method summary: NCI Yeast Anticancer Drug Screen. Data for the bub3 strain (AID 167)
Measurement conditions: S. cerevisiae bub3 mutant strain, at 3.7 µM
The panel holds about 79,000 compounds, 15% with a hit somewhere; the sample as a whole holds those more often. Active and inactive are the calls of the source. Rule as the data show it: active = growth inhibition above about 70%; inactive = the rest.
Outcome codes: active, inactive

Compound: CCCCN(CCCC)CCSc1ccc(Cl)cc1
Class: inactive

Compound: CCCCCCCCCCNC(=O)OCC
Class: inactive

Compound: CC1CCN(CCC(=O)c2ccc(Cl)cc2)CC1
Class: inactive

Compound: Cc1ccc2[nH]c3c(C)c4cc[n+](C)cc4c(C)c3c2c1
Class: inactive

Compound: [N-]=N[N+]#I1OC(C(F)(F)F)(C(F)(F)F)c2ccccc21
Class: active

Compound: CN(Cc1cnc2nc(N)nc(N)c2n1)c1ccc(C(=O)N[C@@H](CCC(=O)O)C(=O)O)cc1
Class: inactive

Compound: CCN(CC)[P+](c1ccccc1O)(N(CC)CC)N(CC)CC
Class: inactive

Compound: COC(=O)c1ccc(NCC2=CC(=O)C=CC2=O)cc1O
Class: inactive

Compound: O=C(N=Nc1ccccc1Cl)NNc1ccccc1Cl
Class: inactive

Compound: FC(F)(F)c1nc2nc(Cl)c(Cl)nc2n1CCCN1CCOCC1
Class: inactive

Compound: O=C(OCC=C1CCCC1)c1cc([N+](=O)[O-])cc([N+](=O)[O-])c1
Class: inactive

Compound: CCN(CC)CCNc1ccc([N+](=O)[O-])c2nc3ccc(OC)cc3c(N)c12
Class: inactive

Compound: Fc1ccc(NC(=S)SCc2ccc(Cl)c(Cl)c2)cc1F
Class: inactive

Compound: CCOC(=O)C(NC(=O)c1ccccc1)(N1CCN(c2cc3c(cc2F)c(=O)c(C(=O)O)cn3C2CC2)CC1)C(F)(F)F (stereo not drawn)
Class: inactive

Compound: CCCCCCCCNC(=O)C1=C(C)NC(C)=C(C(=O)NCCCCCCCC)C1
Class: inactive

Compound: Cc1ccc(-c2ccc(Nc3c4ccccc4nc4ccccc34)cc2)cn1
Class: inactive

Compound: N#C/C(=C\c1cccc(OCc2ccccc2)c1)c1ccc([N+](=O)[O-])cc1
Class: inactive

Compound: O=c1ssc2ncccc12
Class: inactive

Compound: C[C@H](CCC(=O)NN)[C@H]1CC[C@H]2[C@@H]3CC[C@@H]4C[C@H](O)CC[C@]4(C)[C@H]3CC[C@]12C
Class: inactive

Compound: Cn1c(=O)c(-c2ccccc2)c(N=[N+]=[N-])c2ccccc21
Class: inactive

Compound: c1ccc2c(c1)Oc1cccc3cccc-2c13
Class: inactive

Compound: O=[N+]([O-])/C=C/c1ccc2ccccc2c1
Class: inactive

Compound: COc1ccc(Br)c(C(=O)Sc2nnnn2-c2cccc(Cl)c2)c1
Class: inactive

---

Method summary: NCI Yeast Anticancer Drug Screen. Data for the CLN2oe strain (AID 163);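 note: 0% = growth of vehicle-only control cultures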
Measurement conditions: S. cerevisiae CLN2oe strain, at 11.0 µM
About 79,000 compounds went through this panel and 15% of them were active in at least one assay; those are over-represented in the sample as a whole. Calls of active or inactive are those of the source. No stated cut-off is given here; in the data, active means growth inhibition above about 70%; inactive means the rest.
Outcome codes: 1 (active), -1 (inactive)

Molecule: CCOC(=O)C1=C(C(=O)c2ccccc2)C(c2ccccc2[N+](=O)[O-])C(C(=O)c2ccccc2)=C(C(=O)OCC)N1
Class: -1

Molecule: O=C(Nc1ccccc1)OCCc1ccc(Cl)c(Cl)c1
Class: -1

Molecule: COC1=CC(=O)C(C2(OC(C)C)OC(=O)C(Cl)=C2Cl)=CC1=O (stereo not drawn)
Class: 1

Molecule: S=c1[nH]nc(Nc2ccc(Cl)cc2)s1
Class: -1

Molecule: Cc1cc(O)cc(O)c1N=Nc1ccc([N+](=O)[O-])cc1
Class: -1

Molecule: C=C(CN(C)C)C(=O)c1cc(C)ccc1C
Class: -1

Molecule: COc1ccc(N=C2C(=O)Nc3ccc(Br)cc32)cc1
Class: -1

Molecule: N#CC(C(=O)Nc1ccccc1)C1=C(Cl)C(=O)c2ccccc2C1=O (stereo not drawn)
Class: 1

Molecule: Nc1ncncc1C(C1=C(O)COC1=O)C1=C(O)COC1=O
Class: -1

Molecule: COC(=O)CSSCc1ccc([N+](=O)[O-])cc1
Class: -1

Molecule: CCCCCCCCCCC(=O)Cl
Class: -1

Molecule: CCOC(=O)C(NC(=O)c1ccccc1)(N1CCN(c2cc3c(cc2F)c(=O)c(C(=O)O)cn3C2CC2)CC1)C(F)(F)F (stereo not drawn)
Class: -1

Molecule: CN1Cc2ccccc2/C=C\c2ccccc21
Class: -1

Molecule: CCC(=O)Oc1c(Cl)cc(Cl)c2ccccc12
Class: -1

Molecule: CCN(CC)[P+](c1ccccc1O)(N(CC)CC)N(CC)CC
Class: -1

Molecule: Cc1ccc(C2C(Cl)C(=O)N2n2cnc3ccccc3c2=O)cc1 (stereo not drawn)
Class: -1

Molecule: O=C1c2ccccc2C(=O)c2c(NC3CCCCC3)ccc(Nc3ccc(S(=O)(=O)O)cc3)c21
Class: -1

Molecule: CCCCCCCCCCCCCCCCCCOCC(O)COP(=O)(O)OCC1OC(n2cc(F)c(=O)[nH]c2=O)CC1O (stereo not drawn)
Class: -1

Molecule: Cc1ccc(S/N=C\c2ccccc2O)cc1
Class: -1

Molecule: CC(=O)OCc1ccc(O)c(C=O)c1
Class: -1

Molecule: O=C(Cc1csc2[n+]1C(=O)/C(=C/c1ccc(Cl)cc1)S2)Nc1ccccc1
Class: -1

Molecule: COc1cc2ccc(/C=C\[N+](=O)[O-])cc2cc1OC
Class: -1

Molecule: CC(Br)C(=O)c1ccc2cc(Br)c3ccccc3c2c1 (stereo not drawn)
Class: -1

Value source: PubChem BioAssay (NCI)
